Data provenance is ChEMBL document CHEMBL4689842.

- Tested on: Fibroblast
- measurement_notes: Multiplex assay against human fibroblast
- Format: toxicity, cell-based
- condition_label: 12 h, 1 µM, compound concentration 1 uM, replicate 1
endpoint_name: Population Mitochondria Different-Phenotype (%)

Cc1nc(Nc2n[nH]c3c2CN(C(=O)N[C@H](CN(C)C)c2ccccc2)C3(C)C)c2sccc2n1 :: 2%
CN1CCN(CCOc2cc(OC3CCOCC3)c3c(Nc4c(Cl)ccc5c4OCO5)ncnc3c2)CC1 :: 9%
CN(C)C(=O)N[C@H]1CC[C@H](CCN2CCN(c3cccc(Cl)c3Cl)CC2)CC1.Cl [CARIPRAZINE HYDROCHLORIDE] :: 10%
CNCc1ccc(-c2cc(-c3nc(-c4ccc(S(=O)(=O)C(C)C)cc4)cnc3N)on2)cc1 :: 0%
CNc1nc(NCc2ccc(NS(C)(=O)=O)cc2Cl)cc(-c2ccccn2)n1 :: 4%
OC1(c2ccc(Cl)cc2)CCN(Cc2c[nH]c3ccccc23)CC1 :: 6%

---

// reported Growth Rate per item
- System: U2OS
- measurement_notes: Incucyte cell viability with U2OS; also: filed as whole numbers so only -1 and 0 and 1 occur
- Format: toxicity, cell-based
- condition_label: human, 18 h, 10 µM, compound concentration 10 uM, replicate number 1, timepoint 18 hours
endpoint_name: Growth Rate

CNC(=NCCSCc1csc(N=C(N)N)n1)NC#N :: 0
CN(C)C(=O)N[C@H]1CC[C@H](CCN2CCN(c3cccc(Cl)c3Cl)CC2)CC1.Cl [CARIPRAZINE HYDROCHLORIDE] :: 1
O=C(NCc1ccccc1)c1ccc(S(=O)(=O)NCc2ccccc2)cc1 :: 0
N[C@H](C(=O)O)c1ccc(C(=O)O)c(C(=O)O)c1 :: 1
CC[C@H](C)C(=O)O[C@H]1C[C@@H](C)C=C2C=C[C@H](C)[C@H](CC[C@@H]3C[C@@H](O)CC(=O)O3)[C@H]21 :: 0
C[C@@H]1CCN(C(=O)CC#N)C[C@@H]1N(C)c1ncnc2[nH]ccc12.O=C(O)CC(O)(CC(=O)O)C(=O)O [TOFACITINIB CITRATE] :: 0
O=C(Nc1cnc(Oc2ccc(F)cc2)nc1)N1CCc2ncccc2[C@@H]1c1ccc(F)cc1 :: 1
CN1CCN(c2ccc(OC(F)(F)F)c(Nc3ncc4c(n3)-c3c(c(C(N)=O)nn3CCO)CC4)c2)CC1 :: 0
COc1ccc2cc(OCC3(C(=O)O)CN(C(=O)c4ccc(F)cc4)C3)ccc2c1 :: 1
COc1ccc(Cn2ccc3ccc(C(=O)NO)cc32)cc1 :: 1
CC(C)NCC(O)COc1ccc(CCOCC2CC2)cc1.Cl (configuration not stated) [BETAXOLOL HYDROCHLORIDE] :: 1
O=C(/C=C/N1C[C@H]2C[C@@H]1CN2c1ccccn1)c1ccccc1O :: 0
CCCc1nc2c(C)cc(-c3nc4ccccc4n3C)cc2n1Cc1ccc(-c2ccccc2C(=O)O)cc1 :: 1
O=C1NCN(c2ccccc2)C12CCN(CCCOc1ccc(F)cc1)CC2 [SPIRAMIDE] :: 0
CCn1c(=O)c(-c2ccc(Cl)cc2Cl)cc2cnc(Nc3ccc(N4CCNCC4)c(F)c3)nc21 :: 0
N#Cc1ccc(NC(=O)Nc2ccccc2Br)c2nn[nH]c12 :: 1
COc1cccc([C@@H](C)NCCCc2ccccc2Cl)c1.Cl [TECALCET HYDROCHLORIDE] :: 1

---

- System: Fibroblast
- measurement_notes: Multiplex assay against human fibroblast
- Type: toxicity, cell-based
- condition_label: 48 h, 1 µM, compound concentration 1 uM, replicate 1
endpoint_name: Total Cell Count

CC(C)(O)CNc1ncc(-c2ccnc(Nc3ccnc(Cl)c3)n2)c(CC2CC2)n1 :: 143
C[C@@H](NCCCc1cccc(C(F)(F)F)c1)c1cccc2ccccc12.Cl [CINACALCET HYDROCHLORIDE] :: 130
COc1cccc([C@@H](C)NCCCc2ccccc2Cl)c1.Cl [TECALCET HYDROCHLORIDE] :: 229
c1cn2cc(-c3ccc4cn[nH]c4c3)nc(Nc3ccc(N4CCOCC4)cc3)c2n1 :: 104
COc1ncc(-c2ccc3nccc(-c4ccnnc4)c3c2)cc1NS(=O)(=O)c1ccc(F)cc1F :: 79
CC[C@H](C)C(=O)O[C@H]1C[C@@H](C)C=C2C=C[C@H](C)[C@H](CC[C@@H]3C[C@@H](O)CC(=O)O3)[C@H]21 :: 64
Cc1nc(-c2ccc(-c3ccc(C(=O)N4CCc5cc6c(cc54)C4(CCN(C)CC4)CO6)cc3)c(C)c2)no1 :: 277
C=CC(=O)Nc1ccc2ncnc(Nc3ccc(OCc4cccc(F)c4)c(Cl)c3)c2c1.Cc1ccc(S(=O)(=O)O)cc1 :: 112
Cl.N#Cc1ccc2[nH]cc(CCCCN3CCN(c4ccc5oc(C(N)=O)cc5c4)CC3)c2c1 [VILAZODONE HYDROCHLORIDE] :: 136
OC1(c2ccc(Cl)cc2)CCN(Cc2c[nH]c3ccccc23)CC1 :: 42
